Target: T1, HIM-8 ZF1-2-CTD (Caenorhabditis elegans (N2), UniProt O18068 223-361)
T1 sequence: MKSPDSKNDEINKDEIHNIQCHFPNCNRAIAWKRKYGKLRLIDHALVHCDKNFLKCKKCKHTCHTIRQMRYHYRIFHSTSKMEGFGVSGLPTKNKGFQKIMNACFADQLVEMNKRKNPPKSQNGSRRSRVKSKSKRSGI
Test: ITC
measurement_name: pKd
Scale note: pKd = -log10(concentration in M).

Per the record, X chromosome PC motif 12 bp (dsDNA) DNA 1: TTGGTCAGTGCA DNA 2: TGCACTGACCAA has pKd of 6.37
